Tested on: SN12C renal
test details: NCI-60 one-dose screen, 48 h (100 = growth as untreated, 0 = no growth, -100 = all killed)
reported conditions: 10 µM unless noted
This is part of a sample that, as a whole, favours compounds with a hit. Of some 83,000 tested, about 20% had one in any assay.
# class 1 = growth below 80% (exclusive); class 0 = growth at/above 80%

Solved entries:
molecule: CC(=O)Oc1ccc(/C=N/NC(N)=S)nc1
class assignment: class 1

molecule: CCNc1nc2ccc(Nc3ccnc4cc(Cl)ccc34)cc2[nH]1
class assignment: class 1

molecule: C=C(CBr)[C@@H]1CC[C@]2(COC(C)=O)CC[C@]3(C)[C@H](CC[C@@H]4[C@@]5(C)CCCNC(C)(C)[C@@H]5CC[C@]43C)[C@@H]12
class assignment: class 1

**Q:** Report whether reported growth is lower than 80% (strictly) for Cc1ccc(-n2cc(-c3ccccc3)c3c2N=NN2CCN=C32)cc1
**A:** class 0

**Q:** Report whether reported growth is lower than 80% (strictly) for COc1ccc(-c2[nH][nH]c(=O)c2-c2nc3ccccc3s2)cc1
**A:** class 0

**Q:** Report whether reported growth is lower than 80% (strictly) for CCCCCCCCOc1ccc(/C=N/Nc2cc(C)nc3ccc(Br)cc23)cc1
**A:** class 1

**Q:** Report whether reported growth is lower than 80% (strictly) for C=C1C(=O)O[C@H]2[C@H]1CC/C(C(=O)NCCCCCNC(=O)/C1=C/CC[C@@]3(C)O[C@H]3[C@H]3OC(=O)C(=C)[C@@H]3CC1)=C\CC[C@@]1(C)O[C@@H]21
**A:** class 0

**Q:** Report whether reported growth is lower than 80% (strictly) for CCC(CC)NCC(C)(C)O
**A:** class 0

Values compiled from PubChem BioAssay (NCI).
